Reported koff values are given for each entry in this list.
# TARGET_OF_ASSAY: T1, recombinant purified human IL-12 p70 (human, UniProt P29459 23-219)
# T1 construct: Disulfide-linked heterodimer of p35 and p40; also called hIL-12; Hu IL-12
# T1 sequence 1: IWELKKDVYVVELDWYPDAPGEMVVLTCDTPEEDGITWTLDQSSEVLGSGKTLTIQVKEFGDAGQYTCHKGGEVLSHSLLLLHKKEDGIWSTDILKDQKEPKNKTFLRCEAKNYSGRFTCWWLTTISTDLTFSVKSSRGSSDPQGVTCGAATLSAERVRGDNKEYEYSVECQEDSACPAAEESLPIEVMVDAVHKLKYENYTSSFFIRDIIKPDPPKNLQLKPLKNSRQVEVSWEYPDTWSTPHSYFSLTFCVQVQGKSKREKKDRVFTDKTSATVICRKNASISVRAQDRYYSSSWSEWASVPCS
# T1 sequence 2: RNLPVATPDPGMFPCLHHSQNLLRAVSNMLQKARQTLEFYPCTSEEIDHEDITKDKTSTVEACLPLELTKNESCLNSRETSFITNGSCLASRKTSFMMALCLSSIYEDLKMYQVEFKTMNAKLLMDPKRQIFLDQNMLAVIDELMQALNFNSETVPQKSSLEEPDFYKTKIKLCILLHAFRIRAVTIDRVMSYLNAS
# TEST_METHOD_NOTES: SPR (BIAcore) as in Example 1.1.B
Please state the figure in s⁻¹; there is no need to write the unit.

Example cases with answers are listed next.
[
  {
    "BINDER": "anti-IL-12p40 hybrid antibody 1D4.5 (antibody, human IgG1, kappa, L234A L235A, V domains shown) VH: QVTLKESGPGILQPSQTLSLTCSFSGFSLRKSVMGVSWIRQPSGKGLEWLAHIYWDDDKYYNPSLKSRLTISKDPSRNQVFLKITSVDTADAATYYCTRRGIRSAMDYWGQGTSVTVSS VL: DIVMTQSPDSLAVSLGERATINCKASQSVSNDVAWYQQKPGQPPKLLIYYASNRYTGVPDRFSGSGSGTDFTLTISSLQAEDVAVYYCQQDYNSPWTFGGGTKVEIKR",
    "ASSAY_VALUE": "3.1e-05"
  },
  {
    "BINDER": "anti-IL-12p40 hybrid antibody 1A6.3 (antibody, human IgG1, kappa, L234A L235A, V domains shown) VH: EVTLKESGPVLVKPTETLTLTCTVSGFSLSTSGMGVSWIRQPPGKALEWLAHIWWDGDNYYNPSLKSRLTISKDTSKSQVVLTMTNMDPVDTATYYCARRTRVNYAMDYWGQGTTVTVSS VL: SVVMTQTPKFLLVSAGDRVTITCKASQSVSNDVAWFQQKPGQSPKLLIYYASNRYTGVPDRFTGSGYGTDFTFTISTVQAEDLAVYFCQQDYNSPWTFGGGTKLEIKR",
    "ASSAY_VALUE": "2.6e-05"
  },
  {
    "BINDER": "anti-IL-12p40 hybrid antibody 1A6.4 (antibody, human IgG1, kappa, L234A L235A, V domains shown, Hybrid: chimeric murine H chain paired with CDR-grafted L chain) VH: QVTLKESGPGILKPSQTLSLTCSFSGFSLSTSGMGVSWIRQPSGKGLEWLAHIWWDGDNYYNPSLKSQLTISKDTSRNQVFLRIATVDTADTATYYCARRTRVNYAMDYWGQGTSVTVSS VL: EIVMTQSPATLSVSPGERATLSCKASQSVSNDVAWYQQKPGQAPRLLIYYASNRYTGIPARFSGSGSGTEFTLTISSLQSEDFAVYYCQQDYNSPWTFGGGTKVEIKR",
    "ASSAY_VALUE": 0.00011
  }
]

Consider now this further binder.
The value of koff measured for the binder anti-IL-12p40 hybrid antibody 1D4.4 (antibody, human IgG1, kappa, L234A L235A, V domains shown) VH: EVTLRESGPALVKPTQTLTLTCTFSGFSLSKSVMGVSWIRQPPGKALEWLAHIYWDDDKYYNPSLKSRLTISKDTSKNQVVLTMTNMDPVDTATYYCARRGIRSAMDYWGQGTTVTVSS VL: SVVMTQTPKFLLVSAGDRVTITCKASQSVSNDVAWYQQKPGQSPKLLIYYASNRYTGVPDRFTGSGYGTDFTFIISTVRAEDLAVYFCQQDYNSPWTFGGGTKLEIKR turned out to be 2.1e-05
